Species: Homo sapiens
Experiment: Inhibition of heparin-induced tau K18PL mutant aggregation assessed as soluble tau fragment level at 50 uM after 5 days by SDS-PAGE analysis
parameter_measured: inhibition (%)

> print(dat)
                            chemical.string  numeric.readout
1  Nc1scc2c(C(=O)NCC(F)(F)F)nn(-c3ccc(F)cc3)c(=O)c12               75
2  Nc1scc2c(C(=O)NC3CC3)nn(-c3ccc(C(F)(F)F)cc3)c(=O)c12               83
3  CCOC(=O)c1nn(-c2ccc(O)cc2)c(=O)c2c(N)scc12               69

A. Nc1scc2c(C(=O)O)nn(-c3cccc(Cl)c3)c(=O)c12
B. Nc1scc2c(C(=O)NC3CC3)nn(-c3ccccc3Cl)c(=O)c12
Prompt: Hi, I'm comparing A with B and wondering which one has the bigger number for inhibition. Any idea? I would appreciate it if you answered with the label of your choice.
Completion: A
(A: 73%, B: 44%)

----------
Tested on: Mus musculus
Assay: Ratio of drug level in brain to plasma in B6C3F1 mouse at 5 mg/kg, ip after 1 hr
parameter_measured: BPR

> print(dat)
                            chemical.string  numeric.readout
1          Cc1nn(Cc2ccccc2)c(=O)c2c(N)scc12              0.6
2  Nc1scc2c(C(=O)NCC(F)(F)F)nn(-c3ccc(F)cc3)c(=O)c12             1.59
3  CC(C)NC(=O)c1nn(-c2ccc(Cl)cc2)c(=O)c2c1CSC2=O           0.0035

P. Cc1nn(-c2ccccn2)c(=O)c2c(N)scc12
Q. CC(C)NC(=O)c1nn(-c2ccc(F)cc2)c(=O)c2c(N)scc12
Prompt: // task: argmin of BPR over [ P , Q ] I would appreciate it if you answered with the label of your choice.
Completion: P

----------
Test: Drug uptake in B6C3F1 mouse brain at 5 mg/kg, ip after 1 hr
Type: ADME, organism-based
Design: dose 5 mg/kg, route intraperitoneal
Conditions: B6C3F1, mouse, brain, read-out: Drug uptake
parameter_measured: concentration at 1 h (ng/g)

# annotated cases, reported concentration at 1 h shown
> print(dat)
                            chemical.string    parameter.measured  numeric.readout
1          Cc1nn(Cc2ccccc2)c(=O)c2c(N)scc12  concentration at 1 h               48
2  CC(C)NC(=O)c1nn(-c2ccc(F)cc2)c(=O)c2c(N)scc12  concentration at 1 h              280
3  Nc1scc2c(C(=O)NC3CC3)nn(-c3ccc(F)cc3)c(=O)c12  concentration at 1 h              670

A. CC(C)NC(=O)c1nn(-c2ccc(O)cc2)c(=O)c2c(N)scc12
B. Cc1nn(-c2ccccn2)c(=O)c2c(N)scc12
Prompt: // task: argmin of concentration at 1 h over [ A , B ] I would appreciate it if you answered with the label of your choice.
Completion: B
(B: 7.5 ng/g, A: 14.1 ng/g)

P. CC(C)NC(=O)c1nn(-c2ccc(Cl)cc2)c(=O)c2c1CSC2=O
Q. Nc1scc2c(C(=O)NCC(F)(F)F)nn(-c3ccc(F)cc3)c(=O)c12
Prompt: // task: argmin of concentration at 1 h over [ P , Q ] I would appreciate it if you answered with the label of your choice.
Completion: P

Each recorded value in this set is attributed to ChEMBL document CHEMBL2057102.
